Assay: chemical genetic growth profiling, strain panel (AID 1159580);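 further: tested at 20 µM; growth read once vehicle control cultures reached saturation at 30 °C; 1 = growth at the plate median or of vehicle wells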
Conditions: S. cerevisiae deletion strains, growth OD, locus YBR021W, strain FUR4
About 2,000 (36%) of roughly 5,500 compounds were called active. About 18% were inconclusive and are not listed. No stated cut-off is given here; in the data, active means normalized growth mostly below about 0.91 (no sharp cut-off); inconclusive means no clear call, values can overlap the other calls; inactive means mostly above about 0.92. Some of the results follow.
The categories you may choose from are true for active, false for inactive

• NC(=O)N/N=C\c1ccc([N+](=O)[O-])o1 = false
• CC1=CC(=O)CC(C)(C)C1(O)/C=C/C(C)=C\C(=O)O (stereo unspecified) = false
• C[C@@H]1C[C@@H]([C@H](O)CC2CC(=O)NC(=O)C2)C(=O)[C@@H](C)C1 = true
• CCCCC(CC)CN=C(N)NC(N)=NCCCCCCN=C(N)NC(N)=NCC(CC)CCCC (stereo unspecified) = true
• c1cc2c(cc1[C@H]1OC[C@H]3[C@@H]1CO[C@H]3c1ccc3c(c1)OCO3)OCO2 = false

Let's switch to this compound now.
GET /call?item= CC(COc1ccccc1)N(CCCl)Cc1ccccc1 (stereo unspecified) returns the recorded outcome of this test.
false

* * *

Assay: chemical genetic growth profiling, strain panel (AID 1159580);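 further: tested at 20 µM; growth read once vehicle control cultures reached saturation at 30 °C; 1 = growth at the plate median or of vehicle wells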
Settings: S. cerevisiae deletion strains, growth OD, locus YKL193C, strain SDS22, stronger effect = lower value
Out of some 5,500 compounds screened, about 2,000 (36%) were called active. Inconclusive results (about 18%) are left out. This is one part of the list.
Catalogue of normalized growth readings, one per entry.
Answer with the value's number alone.

- CSc1cccc(N2C(=O)CC(c3c(Cl)cccc3Cl)CC2=O)c1: 0.985
- COc1cc(N=Cc2cc(Cl)cc(Cl)c2OS(=O)(=O)c2ccc(C)cc2)c(OC)cc1Cl: 0.946
- Cc1cc(C(=O)O/N=C(/N)c2ccc([N+](=O)[O-])o2)no1: 0.962
- CC(=O)C(Sc1nc2ccccc2s1)C(C)=O: 0.907
- O=C(Nc1ccccn1)c1cc(-c2ccccc2)c(C(F)(F)F)s1: 0.929

The molecule identified as COc1cc(N=Cc2cc(Cl)cc(Cl)c2OC(=O)c2cc(OC)c(OC)c(OC)c2)c(OC)cc1Cl registered its normalized growth at 0.972

The molecule identified as COc1cc(C(=O)Oc2c(Cl)cc(Cl)cc2C=Nc2ccc([N+](=O)[O-])cc2C#N)cc(OC)c1OC registered its normalized growth at 0.965

The molecule identified as Cc1onc(-c2ccccc2Cl)c1-c1nc2ccccc2c(=O)o1 registered its normalized growth at 0.969

The molecule identified as CC12CC[C@@H](O)CC1=CC[C@@H]1C2CCC2(C)C(=O)CC[C@@H]12 (stereo not given in full) registered its normalized growth at 1.01

The molecule identified as Cc1cc(C(=O)O/N=C(/N)c2ccc(C(C)(C)C)cc2)no1 registered its normalized growth at 0.978

* * *

Assay: chemical genetic growth profiling, strain panel (AID 1159580);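 further: tested at 20 µM; growth read once vehicle control cultures reached saturation at 30 °C; 1 = growth at the plate median or of vehicle wells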
Conditions: S. cerevisiae deletion strains, growth OD, locus YOL147C, strain pex11, stronger effect = lower value
Hit rate of the full screen: of about 5,500 compounds, about 2,000 (36%) were called active. Inconclusive results (about 18%) are left out. This is one part of the list.
MEASUREMENT TYPE: normalized growth
Answer with the value's number alone.

Field: example entries. Status: answers known.
- CC[C@@H](C(=O)O)[C@@H]1O[C@@H]([C@@H](C)[C@H](O)[C@H](C)C(=O)[C@H](CC)[C@H]2O[C@]3(C=C[C@@H](O)[C@]4(CC[C@@](C)(C5CC[C@](O)(CC)[C@H](C)O5)O4)O3)[C@H](C)C[C@@H]2C)[C@@H](C)C[C@H]1C (stereo partly drawn): 0.338
- CC[C@]12CCCN3CCc4c(n(c5ccccc45)[C@](O)(C(=O)OC)C1)[C@@H]32: 0.989
- CC[C@]12CCCN3CCc4c(n(c5ccccc45)C(=O)C1)[C@@H]32: 0.989
- CC[C@@H](C(=O)[C@@H](C)[C@@H](O)[C@H](C)[C@@H]1O[C@@H]([C@@H](CC)C(=O)O)CC[C@@H]1C)[C@H]1OC2(C=C[C@@H](O)[C@]3(CC[C@@](C)([C@H]4CC[C@](O)(CC)[C@H](C)O4)O3)O2)[C@H](C)C[C@@H]1C (stereo partly drawn): 0.884

The compound identified as O=c1cccc2n1C[C@H]1CNCC2C1 registered its normalized growth at 0.998

The compound identified as O=C(O)CCCCC1SCC2NC(=O)NC21 (stereo not drawn) registered its normalized growth at 1

The compound identified as CCOC(=O)C1=C[C@]2(CC)CCCN3CCc4c(n1c1ccccc41)[C@@H]32 registered its normalized growth at 0.984

The compound identified as CCCN(CCC)C(=O)C(CCC(=O)O)NC(=O)c1ccccc1 (stereo not drawn) registered its normalized growth at 0.995

The compound identified as CC(=O)N[C@@H]1[C@@H](C(O)[C@H](O)CO)O[C@](O)(C(=O)O)C[C@@H]1O (stereo partly drawn) registered its normalized growth at 1

The compound identified as CCOC(=O)CCCCCCCCCCCCC1C=CCC1 (stereo not drawn) registered its normalized growth at 0.0616

The compound identified as O=C(O)CCC(=O)c1ccc(-c2ccccc2)cc1 registered its normalized growth at 0.98

The compound identified as O=C(O)CCCCCCCCCCCCC1C=CCC1 (stereo not drawn) registered its normalized growth at 0.871

The compound identified as CCOC(=O)c1ccc(N)cc1 registered its normalized growth at 0.993

Values compiled from PubChem BioAssay AID1159580.
